Conditions: in acetonitrile, 293.15 K
Readout type: solubility (mole fraction)

State its solubility (mole fraction): `CC(C)(C)OC(=O)N[C@@H](CCCN=C(N)N[N+](=O)[O-])C(=O)O`
0.00168

----------
Conditions: in ethyl acetate, 323.15 K
Readout type: solubility (mole fraction)
Please give the numeric answer without any surrounding text.

# return recorded solubility (mole fraction) for input `CC(C)(C)OC(=O)N[C@@H](CCCN=C(N)N[N+](=O)[O-])C(=O)O`
0.00187

----------
Conditions: in DMF, 313.15 K
Readout type: solubility (mole fraction)

Respond only with solubility (mole fraction) recorded for `CC(C)(C)OC(=O)N[C@@H](CCCN=C(N)N[N+](=O)[O-])C(=O)O`
0.415

----------
Conditions: in isobutanol, 313.15 K
Readout type: solubility (mole fraction)

Please indicate solubility (mole fraction) recorded for `CC(C)(C)OC(=O)N[C@@H](CCCN=C(N)N[N+](=O)[O-])C(=O)O`
0.00954

----------
Details: in sec-butanol, 313.15 K
Readout type: solubility (mole fraction)
Response field accepts a number only; no unit should be typed.

Determine its reported solubility (mole fraction): `CC(C)(C)OC(=O)N[C@@H](CCCN=C(N)N[N+](=O)[O-])C(=O)O`
0.0162

----------
Settings: in water, 313.15 K
Readout type: solubility (mole fraction)
Keep it simple and answer with nothing but the number.

Identify measured solubility (mole fraction) associated with `CC(C)(C)OC(=O)N[C@@H](CCCN=C(N)N[N+](=O)[O-])C(=O)O`
0.000643

----------
Conditions: in isobutanol, 288.15 K
Readout type: solubility (mole fraction)
Just the number, please, no unit after it.

State its solubility (mole fraction): `CC(C)(C)OC(=O)N[C@@H](CCCN=C(N)N[N+](=O)[O-])C(=O)O`
0.00296

----------
Settings: in isobutanol, 298.15 K
Readout type: solubility (mole fraction)
Keep the answer to the number alone.

Annotate the molecule `CC(C)(C)OC(=O)N[C@@H](CCCN=C(N)N[N+](=O)[O-])C(=O)O` with its measured solubility (mole fraction).
0.00499

----------
Conditions: in sec-butanol, 293.15 K
Readout type: solubility (mole fraction)
Give your answer as a number; write no unit.

Identify measured solubility (mole fraction) corresponding to `CC(C)(C)OC(=O)N[C@@H](CCCN=C(N)N[N+](=O)[O-])C(=O)O`
0.00729

----------
Conditions: in n-butanol, 303.15 K
Readout type: solubility (mole fraction)
// print number alone

Specify reported solubility (mole fraction) for the molecule shown: `CC(C)(C)OC(=O)N[C@@H](CCCN=C(N)N[N+](=O)[O-])C(=O)O`
0.00842

----------
Conditions: in sec-butanol, 288.15 K
Readout type: solubility (mole fraction)
Please give the numeric answer without any surrounding text.

Please indicate solubility (mole fraction) recorded for `CC(C)(C)OC(=O)N[C@@H](CCCN=C(N)N[N+](=O)[O-])C(=O)O`
0.00546

----------
Conditions: in n-pentanol, 313.15 K
Readout type: solubility (mole fraction)
Lab note: write the figure by itself, no unit.

Respond only with solubility (mole fraction) recorded for `CC(C)(C)OC(=O)N[C@@H](CCCN=C(N)N[N+](=O)[O-])C(=O)O`
0.00886

----------
Settings: in n-butanol, 288.15 K
Readout type: solubility (mole fraction)
The response must contain the number and no unit.

Query solubility (mole fraction) for `CC(C)(C)OC(=O)N[C@@H](CCCN=C(N)N[N+](=O)[O-])C(=O)O`
0.00498

These data points were gathered from BigSolDB 2.1.
